Listing: IC50 of selected molecules
# tgt: c-Kit(V654A) (Homo sapiens, UniProt P10721, V654A)
# Construct: amino acids 544-end containing the V654A mutation; GST (N)
# Sequence (P10721 544-976 V654A): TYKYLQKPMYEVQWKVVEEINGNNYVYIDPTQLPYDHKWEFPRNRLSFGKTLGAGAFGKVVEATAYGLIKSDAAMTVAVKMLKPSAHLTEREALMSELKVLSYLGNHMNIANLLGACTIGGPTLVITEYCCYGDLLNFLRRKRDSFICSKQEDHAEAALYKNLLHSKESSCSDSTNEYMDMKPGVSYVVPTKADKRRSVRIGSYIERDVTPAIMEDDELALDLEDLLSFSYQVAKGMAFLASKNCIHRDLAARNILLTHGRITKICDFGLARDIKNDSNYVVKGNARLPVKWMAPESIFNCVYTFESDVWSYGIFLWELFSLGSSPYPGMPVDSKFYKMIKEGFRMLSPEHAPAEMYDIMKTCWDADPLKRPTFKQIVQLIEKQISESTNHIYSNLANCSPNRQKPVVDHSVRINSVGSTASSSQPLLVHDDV
# assay_summary: c-Kit(V654A) assay
# Type: biochemical
# test_parameters: recombinant human c-Kit aa 544-end, 200 μM ATP, 1.4E-06 means 1.4×10^−6, read-out: Inhibition (IC50) of c-KIT (V654A)

{"smiles_entry": "O=C(c1ccc(-n2cc(-c3cc4cc(Cl)ccc4[nH]c3=O)nn2)cc1)N1CCC2(CC1)COC2", "IC50, nM": 27}
{"smiles_entry": "O=C1COCCN1c1ccc(-n2cc(-c3cc4ccccc4[nH]c3=O)nn2)cc1", "IC50, nM": 15}
{"smiles_entry": "O=C1COCCN1c1ccc(-n2cc(-c3cc4cc(F)ccc4[nH]c3=O)nn2)cc1F", "IC50, nM": 20}
{"smiles_entry": "O=C(c1ccc(-n2cc(-c3cc4c(F)cccc4[nH]c3=O)nn2)cc1)N1CCNCC1", "IC50, nM": 9}
